measured_target: kappa opioid receptors (KOR) (Homo sapiens, UniProt P41145)
Sequence (P41145 whole entry): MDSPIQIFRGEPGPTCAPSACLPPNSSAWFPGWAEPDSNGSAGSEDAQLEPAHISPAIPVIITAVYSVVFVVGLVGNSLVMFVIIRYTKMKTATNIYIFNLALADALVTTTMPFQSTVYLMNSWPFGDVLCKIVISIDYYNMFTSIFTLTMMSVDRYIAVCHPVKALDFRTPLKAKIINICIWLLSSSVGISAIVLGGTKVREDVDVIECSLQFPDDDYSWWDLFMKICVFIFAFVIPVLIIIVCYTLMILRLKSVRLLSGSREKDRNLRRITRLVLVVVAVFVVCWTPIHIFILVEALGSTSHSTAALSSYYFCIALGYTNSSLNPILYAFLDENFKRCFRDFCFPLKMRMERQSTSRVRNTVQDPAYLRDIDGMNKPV
assay_protocol: PDSP radioligand binding at KOR
experimental_parameters: 1.5 h; at 10,000 nM; N = 5; [3H]-U69593 0.83 nM; read-out: Primary Binding %KOR
Record form. Attribute: inhibition at 10 µM. Fill in for each entry.
Numbers only, in %.

Here's what some known entries look like.
CC(C)c1noc(-c2ncn3c2[C@@H](C)N=C(c2ccccc2F)c2cc(Cl)ccc2-3)n1 : 99.2
C[C@H]1N=C(c2ccccc2F)c2cc(Cl)ccc2-n2cnc(C(=O)N(C)C)c21 : 81.4
C[C@H]1N=C(c2ccccc2F)c2cc(-c3ccccc3)ccc2-n2cnc(C(=O)N(C)C)c21 : 53.6
C[C@H]1N=C(c2ccccc2F)c2cc(Cl)ccc2-n2cnc(-c3nc(C4CC4)no3)c21 : 98.9
CCc1noc(-c2ncn3c2[C@@H](C)N=C(c2ccccc2F)c2cc(Cl)ccc2-3)n1 : 96.4

For each of the items listed, what is its inhibition at 10 µM?
1. CCc1noc(-c2ncn3c2CN=C(c2ccccc2F)c2cc(C4CC4)ccc2-3)n1
2. CCc1noc(-c2ncn3c2[C@@H](C)N=C(c2ccccc2F)c2cc(-c4ccccc4)ccc2-3)n1
3. C#Cc1ccc2c(c1)C(c1ccccc1F)=N[C@H](C)c1c(C(=S)N(C)C)ncn1-2

stdout:
1. 96.3
2. 38
3. 53.6

====

Record form. Attribute: Sigma 1, PDSP raw data, mean. Fill in for each entry.
System: Sigma 1
assay_protocol: PDSP primary binding Sigma 1
experimental_parameters: primary binding, 10,000 nM; last figure of the line = mean of the 4 before it
One number for each entry, in %.

Here's what some known entries look like.
CCc1noc(-c2ncn3c2[C@@H](C)N=C(c2ccccc2F)c2cc(Cl)ccc2-3)n1 [Compound 36] : 46
C#Cc1ccc2c(c1)C(c1ccccc1Cl)=N[C@H](C)c1c(C(=O)N(C)CC)ncn1-2 [Compound 29] : 35.65
C[C@H]1N=C(c2ccccc2F)c2cc(Cl)ccc2-n2cnc(-c3nc(C4CC4)no3)c21 [Compound 38] : -1.51
C#Cc1ccc2c(c1)C(c1ccccc1Cl)=N[C@H](C)c1c(C(=O)NC)ncn1-2 [Compound 21] : 44.58

For each of the items listed, what is its Sigma 1, PDSP raw data, mean?
1. C#Cc1ccc2c(c1)C(c1ccccn1)=N[C@@H](C)c1c(C(=O)NC)ncn1-2 [Compound 23]
2. CCc1noc(-c2ncn3c2[C@@H](C)N=C(c2ccccc2F)c2cc(C4CC4)ccc2-3)n1 [Compound 46]
3. C#Cc1ccc2c(c1)C(c1ccccc1F)=N[C@H](C)c1c(C(=S)N(C)C)ncn1-2 [Compound 33]
4. C#Cc1ccc2c(c1)C(c1ccccn1)=N[C@@H](C)c1c(C(=O)N(C)C)ncn1-2 [Compound 31]
5. CCc1noc(-c2ncn3c2CN=C(c2ccccc2F)c2cc(C4CC4)ccc2-3)n1 [Compound 44]
6. CC(C)c1noc(-c2ncn3c2[C@@H](C)N=C(c2ccccc2F)c2cc(Cl)ccc2-3)n1 [Compound 37]
7. CCc1noc(-c2ncn3c2[C@@H](C)N=C(c2ccccc2F)c2cc(-c4ccccc4)ccc2-3)n1 [Compound 35]

stdout:
1: 43.18; 2: 34.74; 3: 46.91; 4: 27.79; 5: 53.37; 6: 5.67; 7: 45.25

stdin: Dear colleague, please send me the reported Sigma 1, PDSP raw data, mean for C[C@H]1N=C(c2ccccc2F)c2cc(-c3ccccc3)ccc2-n2cnc(C(=O)N(C)C)c21 [Compound 5] when you can.
stdout: 46.91

====

System: Sigma 2
assay_protocol: PDSP primary binding Sigma 2
experimental_parameters: primary binding, 10,000 nM; last figure of the line = mean of the 4 before it
Checkbox rule: Sigma 2, PDSP raw data, mean lower than 80% = y; Sigma 2, PDSP raw data, mean not lower than 80% = n.

stdin: Is it true that Sigma 2, PDSP raw data, mean reported for C#Cc1ccc2c(c1)C(c1ccccn1)=N[C@@H](C)c1c(C(=O)N(C)C)ncn1-2 is less than 80%?
stdout: y

stdin: Is it true that Sigma 2, PDSP raw data, mean reported for C#Cc1ccc2c(c1)C(c1ccccc1Cl)=N[C@H](C)c1c(C(=O)NC)ncn1-2 is less than 80%?
stdout: y

====

Record form. Attribute: log10 of Ki. Fill in for each entry.
measured_target: BZP rat brain site
assay_protocol: PDSP binding at BZP rat brain site
experimental_parameters: N = 2; rat brain; read-out: Binding Affinity BZR Secondary Screening Ki
In our notation, the value equals log10 of Ki in nM.

Here's what some known entries look like.
C#Cc1ccc2c(c1)C(c1ccccn1)=N[C@@H](C)c1c(C(=O)NC)ncn1-2 [Compound 23] : 3.11
C#Cc1ccc2c(c1)C(c1ccccc1Cl)=N[C@H](C)c1c(C(=O)N(C)CC)ncn1-2 [Compound 29] : 2.60
C#Cc1ccc2c(c1)C(c1ccccn1)=N[C@@H](C)c1c(C(=O)N(C)C)ncn1-2 [Compound 31] : 2.92
CCc1noc(-c2ncn3c2CN=C(c2ccccc2F)c2cc(C4CC4)ccc2-3)n1 [Compound 44] : 2.29
C[C@H]1N=C(c2ccccc2F)c2cc(-c3ccccc3)ccc2-n2cnc(C(=O)N(C)C)c21 [Compound 5] : 2.09
C#Cc1ccc2c(c1)C(c1ccccc1Cl)=N[C@H](C)c1c(C(=O)NC)ncn1-2 [Compound 21] : 1.89

For each of the items listed, what is its log10 of Ki?
1. C#Cc1ccc2c(c1)C(c1ccccc1F)=N[C@H](C)c1c(C(=S)N(C)C)ncn1-2 [Compound 33]
2. CCc1noc(-c2ncn3c2[C@@H](C)N=C(c2ccccc2F)c2cc(C4CC4)ccc2-3)n1 [Compound 46]
3. CCc1noc(-c2ncn3c2[C@@H](C)N=C(c2ccccc2F)c2cc(Cl)ccc2-3)n1 [Compound 36]

stdout:
1. 2.94
2. 3.58
3. 2.77

====

measured_target: 5-HT6 (Homo sapiens, UniProt P50406)
Construct: purchased NIMH Psychoactive Drug Screening Program (PDSP)
Sequence (P50406 whole entry): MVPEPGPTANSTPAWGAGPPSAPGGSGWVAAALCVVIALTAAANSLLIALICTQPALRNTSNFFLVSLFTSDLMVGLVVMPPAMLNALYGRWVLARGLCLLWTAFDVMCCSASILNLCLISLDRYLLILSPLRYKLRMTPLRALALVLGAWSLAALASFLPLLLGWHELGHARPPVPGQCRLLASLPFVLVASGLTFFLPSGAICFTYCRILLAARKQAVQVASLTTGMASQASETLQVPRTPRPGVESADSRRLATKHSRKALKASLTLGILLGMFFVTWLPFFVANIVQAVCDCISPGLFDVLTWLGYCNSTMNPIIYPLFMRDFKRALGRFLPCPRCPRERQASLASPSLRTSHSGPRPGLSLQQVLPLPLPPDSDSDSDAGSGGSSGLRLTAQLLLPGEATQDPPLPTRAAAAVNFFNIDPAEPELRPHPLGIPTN
assay_protocol: PDSP primary binding 5-HT6
experimental_parameters: 1.5 h; primary binding, 10,000 nM; last figure of the line = mean of the 4 before it; read-out: 5-HT6, PDSP raw data, mean
Protocol: To determine if any off-target receptor-binding effects are present, all the novel ligands were sent to the National Institute of Mental Health (NIMH), Psychoactive Drug Screening Program (PDSP). […] The hERG-binding was also determined. […] The binding of a ligand to a receptor, ion channel, or transporter was determined in the […] of 10 µM of the appropriate reference compound. […] Radioactivity was then counted on a Microbeta counter. […]
Quick rule: inhibition at 10 µM of at least 10% means y, below that means n.

C#Cc1ccc2c(c1)C(c1ccccn1)=N[C@@H](C)c1c(C(=O)NC)ncn1-2 : y
C#Cc1ccc2c(c1)C(c1ccccc1Cl)=N[C@H](C)c1c(C(=O)N(C)CC)ncn1-2 : y
CC(C)c1noc(-c2ncn3c2[C@@H](C)N=C(c2ccccc2F)c2cc(Cl)ccc2-3)n1 : n
CCc1noc(-c2ncn3c2[C@@H](C)N=C(c2ccccc2F)c2cc(Cl)ccc2-3)n1 : y
CCc1noc(-c2ncn3c2CN=C(c2ccccc2F)c2cc(C4CC4)ccc2-3)n1 : y

stdin: Form field: inhibition at 10 µM at least 10%? Entry: CCc1noc(-c2ncn3c2[C@@H](C)N=C(c2ccccc2F)c2cc(C4CC4)ccc2-3)n1
stdout: y

stdin: Form field: inhibition at 10 µM at least 10%? Entry: C[C@H]1N=C(c2ccccc2F)c2cc(Cl)ccc2-n2cnc(-c3nc(C4CC4)no3)c21
stdout: n

stdin: Form field: inhibition at 10 µM at least 10%? Entry: C#Cc1ccc2c(c1)C(c1ccccc1F)=N[C@H](C)c1c(C(=S)N(C)C)ncn1-2
stdout: y

====

Record form. Attribute: inhibition at 10 µM. Fill in for each entry.
measured_target: HCA2 (Homo sapiens)
Construct: purchased NIMH Psychoactive Drug Screening Program (PDSP)
Sequence (Q8TDS4 whole entry): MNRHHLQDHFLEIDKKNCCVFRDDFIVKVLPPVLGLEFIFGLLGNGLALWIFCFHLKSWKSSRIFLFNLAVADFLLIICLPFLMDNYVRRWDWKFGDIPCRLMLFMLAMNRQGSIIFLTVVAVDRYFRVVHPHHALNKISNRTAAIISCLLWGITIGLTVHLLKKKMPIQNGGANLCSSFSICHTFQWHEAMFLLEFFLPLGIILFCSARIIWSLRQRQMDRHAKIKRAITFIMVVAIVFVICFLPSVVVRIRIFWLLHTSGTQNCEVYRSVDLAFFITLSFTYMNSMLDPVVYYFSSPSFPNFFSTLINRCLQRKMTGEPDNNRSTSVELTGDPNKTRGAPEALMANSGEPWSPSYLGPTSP
assay_protocol: PDSP primary binding HCA2
experimental_parameters: primary binding, 10,000 nM; last figure of the line = mean of the 4 before it; read-out: HCA2, PDSP raw data, mean
Answers are plain numbers, in %.

Here's what some known entries look like.
C#Cc1ccc2c(c1)C(c1ccccc1Cl)=N[C@H](C)c1c(C(=O)N(C)CC)ncn1-2 [Compound 29] : -26.3
C#Cc1ccc2c(c1)C(c1ccccc1Cl)=N[C@H](C)c1c(C(=O)NC)ncn1-2 [Compound 21] : 35.7
C[C@H]1N=C(c2ccccc2F)c2cc(Cl)ccc2-n2cnc(-c3nc(C4CC4)no3)c21 [Compound 38] : -1.1
CCc1noc(-c2ncn3c2CN=C(c2ccccc2F)c2cc(C4CC4)ccc2-3)n1 [Compound 44] : -11.9
C#Cc1ccc2c(c1)C(c1ccccc1F)=N[C@H](C)c1c(C(=S)N(C)C)ncn1-2 [Compound 33] : -9.82

For each of the items listed, what is its inhibition at 10 µM?
1. CCc1noc(-c2ncn3c2[C@@H](C)N=C(c2ccccc2F)c2cc(Cl)ccc2-3)n1 [Compound 36]
2. C#Cc1ccc2c(c1)C(c1ccccn1)=N[C@@H](C)c1c(C(=O)NC)ncn1-2 [Compound 23]
3. CCc1noc(-c2ncn3c2[C@@H](C)N=C(c2ccccc2F)c2cc(C4CC4)ccc2-3)n1 [Compound 46]

stdout:
1. -29.3
2. 15.2
3. -17.2
